measured.on: rabbit aldolase (ALDOA) (Oryctolagus cuniculus)
Sequence (P00883 2-364): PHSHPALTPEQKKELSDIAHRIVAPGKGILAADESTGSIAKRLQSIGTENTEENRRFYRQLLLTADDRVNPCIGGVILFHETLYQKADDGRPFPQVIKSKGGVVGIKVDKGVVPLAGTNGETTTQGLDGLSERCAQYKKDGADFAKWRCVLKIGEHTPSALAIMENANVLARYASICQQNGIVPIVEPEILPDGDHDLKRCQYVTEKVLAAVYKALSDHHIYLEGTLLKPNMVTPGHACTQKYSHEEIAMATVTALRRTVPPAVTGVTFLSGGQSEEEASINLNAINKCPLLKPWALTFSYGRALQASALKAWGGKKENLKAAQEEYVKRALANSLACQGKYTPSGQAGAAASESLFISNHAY
pKd: −log10 of the molar value.
measurement.label: pKd

# molecule, measurement.label, meas.value
records = [
    ("CCCCCCCCCCCCCCCCn1cc[n+](Cc2c(Cl)cccc2Cl)c1C [LXY-05-029, aldometanib]", "pKd", "~4.70"),
]
